Assay: xn = mol fraction of the nth substance listed, in the solute-free solvent
Details: 288.15 K; x2 = 0.8
Could you label it Yes if measured solubility (g/100 g solution) is 2 or higher, and No otherwise?

INSERT INTO assay_data (molecule, assigned_label) VALUES
  ('O=c1ccc2ccccc2o1 + CC(C)=O + O', 'Yes'),
  ('CC1(C)SC2C(NC(=O)C(NC(=O)N3CCNC3=O)c3ccccc3)C(=O)N2C1C(=O)O (configuration not stated) + CCO + CC(C)O', 'No'),
  ('CCOC(=O)C1=CC2(CC)CCCN3CCc4c(n1c1ccccc41)C32 (configuration not stated) + CCO + O', 'No'),
  ('O=c1ccc2ccccc2o1 + CO + O', 'Yes'),
  ('CN1CCN(C(=O)OC2c3nccnc3C(=O)N2c2ccc(Cl)cn2)CC1 (configuration not stated) + CCO + O', 'No'),
  ('O=C(CC(=O)c1ccccc1)c1ccccc1 + CCO + O', 'No'),
  ('O=C(CC(=O)c1ccccc1)c1ccccc1 + CC(C)O + O', 'No'),
  ('CN1CCN(C(=O)OC2c3nccnc3C(=O)N2c2ccc(Cl)cn2)CC1 (configuration not stated) + CC(C)=O + O', 'No'),
  ('CN1CCN(C(=O)OC2c3nccnc3C(=O)N2c2ccc(Cl)cn2)CC1 (configuration not stated) + C1CCOC1 + O', 'Yes'),
  ('CC1(C)SC2C(NC(=O)C(NC(=O)N3CCNC3=O)c3ccccc3)C(=O)N2C1C(=O)O (configuration not stated) + CO + CC(C)O', 'No'),
  ('O=C(CC(=O)c1ccccc1)c1ccccc1 + CO + O', 'No'),
  ('CN1CCN(C(=O)OC2c3nccnc3C(=O)N2c2ccc(Cl)cn2)CC1 (configuration not stated) + CC#N + O', 'Yes');

----------
This listing pairs compounds with measured solubility (g/100 g solution).
Assay: xn = mol fraction of the nth substance listed, in the solute-free solvent
Conditions: 318.15 K; x2 = 0.3698
READOUT_LABEL: solubility (g/100 g solution)

INSERT INTO results (compound, readout_label, observed) VALUES
  ('COC(=O)C1=C(C)NC(C)=C(C(=O)OCC(C)C)C1c1ccccc1[N+](=O)[O-] (centres undefined) + CCO + O', 'solubility (g/100 g solution)', 7.38),
  ('CS(=O)(=O)c1ccc(C(O)C(CF)NC(=O)C(Cl)Cl)cc1 (centres undefined) + CCO + O', 'solubility (g/100 g solution)', 4.43),
  ('CC(=O)Nc1ccc(OC(=O)c2ccccc2OC(C)=O)cc1 + CCO + O', 'solubility (g/100 g solution)', 0.69),
  ('O=[N+]([O-])c1cc[nH]n1 + CCO + O', 'solubility (g/100 g solution)', 3.86);

----------
Assay: xn = mol fraction of the nth substance listed, in the solute-free solvent
Details: 328.15 K; x2 = 0.6
This listing pairs compounds with measured solubility (g/100 g solution).
READOUT_LABEL: solubility (g/100 g solution)

INSERT INTO measurements (compound, observed) VALUES
  ('CN1CCN(C(=O)OC2c3nccnc3C(=O)N2c2ccc(Cl)cn2)CC1 (stereo unspecified) + CC(C)=O + O', 2.51),
  ('CN1CCN(C(=O)OC2c3nccnc3C(=O)N2c2ccc(Cl)cn2)CC1 (stereo unspecified) + CCO + O', 3.27),
  ('CN1CCN(C(=O)OC2c3nccnc3C(=O)N2c2ccc(Cl)cn2)CC1 (stereo unspecified) + CC#N + O', 7.47),
  ('CCCCN1CCCCC1C(=O)Nc1c(C)cccc1C.Cl.O (stereo unspecified) + CCO + O', 19.4),
  ('CN1CCN(C(=O)OC2c3nccnc3C(=O)N2c2ccc(Cl)cn2)CC1 (stereo unspecified) + C1CCOC1 + O', 6.16),
  ('CCCCN1CCCCC1C(=O)Nc1c(C)cccc1C.Cl.O (stereo unspecified) + CO + O', 29.8);

Data origin, for the record: the CheMixHub drug solubility set
